These data points were gathered from patent US7294330B2.

MEASUREMENT TARGET: β-glucuronidase (Sigma) (EC 3.2.1.31) from E. coli (Escherichia coli, UniProt P05804)
Construct: purchased Sigma G-7396
Sequence (P05804 whole entry): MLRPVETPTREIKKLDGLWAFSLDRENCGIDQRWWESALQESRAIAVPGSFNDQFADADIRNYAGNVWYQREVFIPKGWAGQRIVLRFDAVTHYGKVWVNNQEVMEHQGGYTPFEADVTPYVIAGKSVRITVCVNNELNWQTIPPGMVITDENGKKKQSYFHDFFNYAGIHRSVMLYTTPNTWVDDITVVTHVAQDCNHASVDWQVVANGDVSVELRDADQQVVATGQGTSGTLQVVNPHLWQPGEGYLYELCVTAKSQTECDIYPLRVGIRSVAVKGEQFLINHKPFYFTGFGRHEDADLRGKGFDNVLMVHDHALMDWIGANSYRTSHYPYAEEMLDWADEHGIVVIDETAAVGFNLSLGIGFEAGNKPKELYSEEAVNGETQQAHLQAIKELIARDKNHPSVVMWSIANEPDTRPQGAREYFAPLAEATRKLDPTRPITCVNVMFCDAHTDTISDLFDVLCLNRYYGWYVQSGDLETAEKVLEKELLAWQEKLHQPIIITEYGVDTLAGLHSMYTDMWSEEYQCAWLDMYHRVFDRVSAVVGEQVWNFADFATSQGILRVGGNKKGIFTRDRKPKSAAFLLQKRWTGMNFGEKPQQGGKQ
EXPERIMENTAL PROTOCOL: biochemical
RECORDED CONDITIONS: test concentration 0.01 %; 30 min, 37° C., pH 6.8
PROPERTY: Residual activity (%)
Only the number, expressed in %, is required.

Below, 2 compounds whose answers are already recorded.
- COMPOUND: "O=C([O-])C(O)C(O)C(O)C(O)C(O)CO.O=C([O-])C(O)C(O)C(O)C(O)C(O)CO.[Mg+2] (centres unmarked) [Magnesium glucoheptonate, magnesium glucoheptonate]"
  Residual activity / %: 55
- COMPOUND: "O=C([O-])CC(O)(CC(=O)[O-])C(=O)[O-].[K+].[K+].[K+] [Tripotassium citrate, tripotassium citrate]"
  Residual activity / %: 97

Ask | Given the compound O=C([O-])CN(CCN(CC(=O)[O-])CC(=O)[O-])CC(=O)[O-].[Na+].[Na+].[Na+].[Na+] [Trilon B, EDTA-4 Na, reference compound] , what is its reported Residual activity?
Reply | 108

Ask | Could you share which Residual activity value was measured for O=C([O-])CN(CC(=O)[O-])CC(=O)[O-].[Na+].[Na+].[Na+] [Trilon A, Nitrilotriacetic acid 3 Na, reference compound] ?
Reply | 100

Ask | So what does the record say about Residual activity for CC(O)C(=O)[O-].[K+] (centres unmarked) [Purasal P Hipure 60, Potassium lactate] ?
Reply | 96
